Measured values drawn from patent US20220281976A1 for this set.

Target: human CD33 (human, UniProt P20138 18-364)
Sequence (P20138 18-364): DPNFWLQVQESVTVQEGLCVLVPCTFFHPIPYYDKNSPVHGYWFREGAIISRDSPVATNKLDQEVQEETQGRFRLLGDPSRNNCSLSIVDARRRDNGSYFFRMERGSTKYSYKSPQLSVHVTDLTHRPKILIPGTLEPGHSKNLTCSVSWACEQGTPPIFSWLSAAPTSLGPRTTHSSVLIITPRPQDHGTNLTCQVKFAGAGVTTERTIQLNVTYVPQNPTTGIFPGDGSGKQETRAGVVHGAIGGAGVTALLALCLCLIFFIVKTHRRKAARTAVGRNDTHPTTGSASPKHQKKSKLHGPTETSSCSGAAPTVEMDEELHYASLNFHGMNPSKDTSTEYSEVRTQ
Assay: cell-based or functional assay
reportedMetric: Percent CD33 Surface Expression, Monocyte % CD33 (%)

| binder | unitString | observedResult |
| --- | --- | --- |
| C-73 (antibody, V domains shown, human IgG1) VH: QVQLVESGGGVVQPGRSLRLSCAASGFTFSSYGMHWVRQAPGKGLEWVAVIWYDGSNKYYADSVKGRFTISRDNSKNTLYLQMNSLRAEDTAVYYCARGTNAYGTPRDFDLWGRGTLVTVSS VL: DIQMTQSPSSLSASVGDRVTITCRASQSISSYLNWYQQKPGKAPKLLIYAASSLQSGVPSRFSGSGSGTDFTLTISSLQPEDFATYYCQQLSDTPITFGGGTKVEIK | % | 24.9 |
| C-24 (antibody, V domains shown, human IgG1) VH: QVQLVQSGAEVKKPGASVKVSCKASGYTFTSYYMHWVRQAPGQGLEWMGVINPSGGSTSYAQKFQGRVTMTRDTSTSTVYMELSSLRSEDTAVYYCARESQYYDVHGMDVWGQGTTVTVSS VL: DIQMTQSPSSLSASVGDRVTITCRASQSISSYLNWYQQKPGKAPKLLIYAASSLQSGVPSRFSGSGSGTDFTLTISSLQPEDFATYYCQQSVTPPLTFGGGTKVEIK | % | 43.1 |
| C-39 (antibody, V domains shown, human IgG1) VH: QLQLQESGPGLVKPSETLSLTCTVSGGSISSSSYYWGWIRQPPGKGLEWIGSIYYSGSTYYNPSLKSRVTISVDTSKNQFSLKLSSVTAADTAVYYCAREGVRGMDVWGQGTTVTVSS VL: EIVLTQSPGTLSLSPGERATLSCRASQSVSSSYLAWYQQKPGQAPRLLIYGASSRATGIPDRFSGSGSGTDFTLTISRLEPEDFAVYYCQQFAFLPPTFGGGTKVEIK | % | 27.2 |
| C-60 (antibody, V domains shown, human IgG1) VH: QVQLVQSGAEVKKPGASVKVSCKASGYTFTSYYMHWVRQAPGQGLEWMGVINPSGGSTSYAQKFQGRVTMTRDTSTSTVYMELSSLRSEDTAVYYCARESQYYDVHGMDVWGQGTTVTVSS VL: DIQLTQSPSSLSASVGDRVTITCRASQSISSYLNWYQQKPGKAPKLLIYAASSLQSGVPSRFSGSGSGTDFTLTISSLQPEDFATYYCQQSVHVPITFGGGTKVEIK | % | 41.7 |
| C-16 (antibody, V domains shown, human IgG1) VH: EVQLVESGGGLVQPGGSLRLSCAASGFTFSSYWMSWVRQAPGKGLEWVANINQDGSEKYYVDSVKGRFTISRDNAKNSLYLQMNSLRAEDTAVYYCAREGSDRHPFDYWGQGTLVTVSS VL: DIQMTQSPSSLSASVGDRVTITCRASQSISSYLNWYQQKPGKAPKLLIYAASSLQSGVPSRFSGSGSGTDFTLTISSLQPEDFATYYCQQAYLVPLTFGGGTKVEIK | % | 42.4 |
| C-3 (antibody, V domains shown, human IgG1) VH: QVQLVQSGAEVKKPGSSVKVSCKASGGTFSNYAISWVRQAPGQGLEWMGGIIPIFGTANYAQKFQGRVTITADESTSTAYMELSSLRSEDTAVYYCARDTGTYVTGDGMDVWGQGTTVTVSS VL: EIVMTQSPATLSVSPGERATLSCRASQSVSSNLAWYQQKPGQAPRLLIYGASTRATGIPARFSGSGSGTEFTLTISSLQSEDFAVYYCQQYDVWPITFGGGTKVEIK | % | 29.1 |
| C-88 (antibody, V domains shown, human IgG1) VH: QLQLQESGPGLVKPSETLSLTCTVSGGSISSSSYYWGWIRQPPGKGLEWIGSIYYSGSTYYNPSLKSRVTISVDTSKNQFSLKLSSVTAADTAVYYCARLPIYYDSSGYFDYHGMDVWGQGTTVTVSS VL: EIVLTQSPATLSLSPGERATLSCRASQSVSSYLAWYQQKPGQAPRLLIYDASNRATGIPARFSGSGSGTDFTLTISSLEPEDFAVYYCQQHANHPPTFGGGTKVEIK | % | 28.7 |
| C-9 (antibody, V domains shown, human IgG1) VH: QLQLQESGPGLVKPSETLSLTCTVSGGSISSSSYYWGWIRQPPGKGLEWIGSIYYSGSTYYNPSLKSRVTISVDTSKNQFSLKLSSVTAADTAVYYCARESGFAGLDPWGQGTLVTVSS VL: EIVLTQSPGTLSLSPGERATLSCRASQSVSSSFLAWYQQKPGQAPRLLIYGASSRATGIPDRFSGSGSGTDFTLTISRLEPEDFAVYYCQQSEDWPTFGGGTKVEIK | % | 33.1 |
| C-12 (antibody, V domains shown, human IgG1) VH: EVQLLESGGGLVQPGGSLRLSCAASGFTFSNYAMSWVRQAPGKGLEWVSAISGSGGSTYYADSVKGRFTISRDNSKNTLYLQMNSLRAEDTAVYYCARDGSRYSYGLVAYGMDVWGQGTTVTVSS VL: EIVLTQSPGTLSLSPGERATLSCRASQSVSSSFLAWYQQKPGQAPRLLIYGASSRATGIPDRFSGSGSGTDFTLTISRLEPEDFAVYYCQQSQLRPTFGGGTKVEIK | % | 54.2 |
| C-66 (antibody, V domains shown, human IgG1) VH: QLQLQESGPGLVKPSETLSLTCTVSGGSISSSSYYWGWIRQPPGKGLEWIGSIYYSGSTYYNPSLKSRVTISVDTSKNQFSLKLSSVTAADTAVYYCAREVGYPYGMDVWGQGTTVTVSS VL: DIQLTQSPSSLSASVGDRVTITCQASQDISNFLNWYQQKPGKAPKLLIYDASNLETGVPSRFSGSGSGTDFTFTISSLQPEDIATYYCQQYSDLPTFGGGTKVEIK | % | 59.9 |
